Target: Angiotensin-converting enzyme (Rattus norvegicus)
pIC50: −log10 of the molar value.
endpoint: pIC50

Solved entries (count: 6):
compound	pIC50
CC(C)(C)OC(=O)[C@@H]1CCCN1C(=O)[C@H]1CC[C@@H]1SC(=O)c1ccccc1	3.60
O=C(S[C@@H]1CC[C@H]1C(=O)N1CCC[C@H]1C(=O)O)c1ccccc1	5.26
O=C(O)[C@@H]1CCCN1C(=O)[C@H]1CCC[C@H]1S	3.69
O=C(O)[C@@H]1CCCN1C(=O)C1CCCC1S (stereo partly drawn)	5.79
O=C(S[C@H]1CCC[C@@H]1C(=O)N1CCC[C@H]1C(=O)O)c1ccccc1	3.84
O=C(S[C@@H]1CCC[C@@H]1C(=O)N1CCC[C@H]1C(=O)O)c1ccccc1	3.60

[a] O=C(S[C@H]1CC[C@@H]1C(=O)N1CCC[C@H]1C(=O)O)c1ccccc1
[b] O=C(O)[C@@H]1CCCN1C(=O)[C@H]1CC[C@@H]1S
Input: Given the listed records, identify the one among a and b with higher pIC50. Write the label of whichever entry you select.
Output: b
(b: 4.90, a: 3.60)

---

Tested on: Canis familiaris
Test: Compound was evaluated for antihypertensive activity in conscious renal hypertensive dogs at a 30 mg/kg dose given orally
Assay type: functional, Canis lupus familiaris
Details: route oral
Recorded SBP decrease values for a group of molecules are listed next.
API: value field is a number in %; no unit string.

Solved entries (count: 2):
compound_smiles	test_target	unit_tag	SBP decrease
C[C@H](CS)C(=O)N1CCC[C@H]1C(=O)O	Canis familiaris	%	-19
O=C(S[C@H]1CC[C@@H]1C(=O)N1CCC[C@H]1C(=O)O)c1ccccc1	Canis familiaris	%	-19

Input: Tell me reported SBP decrease for `O=C(S[C@@H]1CC[C@H]1C(=O)N1CCC[C@H]1C(=O)O)c1ccccc1` , tested with Canis familiaris.
Output: -17

Input: Tell me reported SBP decrease for `O=C(O)[C@@H]1CCCN1C(=O)[C@@H]1CCC[C@H]1S` , tested with Canis familiaris.
Output: -21

Input: Tell me reported SBP decrease for `O=C(S[C@@H]1CCC[C@H]1C(=O)N1CCC[C@H]1C(=O)O)c1ccccc1` , tested with Canis familiaris.
Output: -18

---

Target: Angiotensin-converting enzyme (Rattus norvegicus)
Assay: Compound was evaluated for ACE inhibitory activity in conscious normotensive rats at a dose 10 mg/kg given intravenously by determining percent reduction in Angiotensin I converting enzyme response
Assay type: organism-based
Set-up: dose 10 mg/kg
endpoint: Change in ACE response (%)

Solved entries (count: 2):
compound_smiles	unit_tag	Change in ACE response
O=C(O)[C@@H]1CCCN1C(=O)[C@@H]1CCC[C@H]1S	%	-75
O=C(S[C@H]1CC[C@@H]1C(=O)N1CCC[C@H]1C(=O)O)c1ccccc1	%	-30

[a] O=C(S[C@@H]1CCC[C@H]1C(=O)N1CCC[C@H]1C(=O)O)c1ccccc1
[b] O=C(O)[C@@H]1CCCN1C(=O)[C@@H]1CCC[C@@H]1S
Input: Given the listed records, identify the one among a and b with higher Change in ACE response. Write the label of whichever entry you select.
Output: b

---

Molecular target: Angiotensin-converting enzyme (Rattus norvegicus, UniProt P47820)
Sequence (P47820 whole entry): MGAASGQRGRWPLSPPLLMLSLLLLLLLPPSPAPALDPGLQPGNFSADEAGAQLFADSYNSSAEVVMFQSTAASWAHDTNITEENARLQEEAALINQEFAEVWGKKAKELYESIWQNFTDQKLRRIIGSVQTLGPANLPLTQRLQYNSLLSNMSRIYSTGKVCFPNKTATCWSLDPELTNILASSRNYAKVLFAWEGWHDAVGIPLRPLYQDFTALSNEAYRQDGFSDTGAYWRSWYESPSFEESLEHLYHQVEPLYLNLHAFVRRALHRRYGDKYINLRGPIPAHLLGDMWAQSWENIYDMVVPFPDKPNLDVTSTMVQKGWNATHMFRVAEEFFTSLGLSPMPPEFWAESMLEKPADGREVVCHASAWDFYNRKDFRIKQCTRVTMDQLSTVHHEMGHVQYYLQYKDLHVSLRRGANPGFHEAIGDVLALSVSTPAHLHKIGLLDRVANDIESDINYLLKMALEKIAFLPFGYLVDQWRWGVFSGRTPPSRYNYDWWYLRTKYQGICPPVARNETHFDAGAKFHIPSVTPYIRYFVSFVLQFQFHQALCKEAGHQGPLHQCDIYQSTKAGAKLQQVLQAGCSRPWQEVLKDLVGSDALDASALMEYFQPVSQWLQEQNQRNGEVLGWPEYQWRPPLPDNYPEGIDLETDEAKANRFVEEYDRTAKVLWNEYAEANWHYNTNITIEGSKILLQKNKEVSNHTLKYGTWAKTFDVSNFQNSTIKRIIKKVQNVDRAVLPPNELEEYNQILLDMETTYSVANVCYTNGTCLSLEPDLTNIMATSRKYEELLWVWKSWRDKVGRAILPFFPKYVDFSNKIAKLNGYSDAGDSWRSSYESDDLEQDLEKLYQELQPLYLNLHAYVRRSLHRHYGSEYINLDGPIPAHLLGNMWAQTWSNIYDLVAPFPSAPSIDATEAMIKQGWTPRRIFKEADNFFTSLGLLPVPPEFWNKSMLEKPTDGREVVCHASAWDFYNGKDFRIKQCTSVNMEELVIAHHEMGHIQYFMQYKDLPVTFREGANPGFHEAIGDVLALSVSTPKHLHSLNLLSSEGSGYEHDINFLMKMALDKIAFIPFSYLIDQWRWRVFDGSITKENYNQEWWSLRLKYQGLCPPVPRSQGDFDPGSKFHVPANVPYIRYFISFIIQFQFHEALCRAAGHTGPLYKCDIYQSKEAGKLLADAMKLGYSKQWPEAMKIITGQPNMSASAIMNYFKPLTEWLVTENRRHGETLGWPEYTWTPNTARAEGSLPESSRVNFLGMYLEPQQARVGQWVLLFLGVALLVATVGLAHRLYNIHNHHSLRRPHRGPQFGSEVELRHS
pIC50: −log10 of the molar value.
endpoint: pIC50

[I] CC1(C)CC[C@H](C(=O)N2CCC[C@H]2C(=O)O)[C@H]1SC(=O)c1ccccc1
[II] O=C(S[C@@H]1CCC[C@H]1C(=O)N1CCC[C@H]1C(=O)O)c1ccccc1
[III] O=C(S[C@H]1CCC[C@H]1C(=O)N1CCC[C@H]1C(=O)O)c1ccccc1
[IV] O=C(O)[C@@H]1CCCN1C(=O)[C@@H]1CCC[C@@H]1S
Input: // ascending sort on recorded pIC50 Use the labels to give the requested order.
Output: I, III, IV, II
(I: 3.60, III: 3.84, IV: 4.71, II: 6.24)

---

Molecular target: Angiotensin-converting enzyme (Rattus norvegicus) (UniProt P47820)
Sequence (P47820 whole entry): as above
Test: Compound was evaluated for ACE inhibitory activity in conscious normotensive rats at a dose 1 mg/kg given intravenously by determining percent reduction in Angiotensin I converting enzyme response
Assay type: organism-based
Set-up: dose 1 mg/kg
endpoint: Reduction (%)

Solved entries (count: 2):
compound_smiles	test_target	Reduction / %
O=C(O)[C@@H]1CCCN1C(=O)[C@@H]1CCC[C@@H]1S	Angiotensin-converting enzyme (Rattus norvegicus) (UniProt P47820)	-22
O=C(O)[C@@H]1CCCN1C(=O)[C@@H]1CCC[C@H]1S	Angiotensin-converting enzyme (Rattus norvegicus) (UniProt P47820)	-42

[P] O=C(S[C@@H]1CC[C@H]1C(=O)N1CCC[C@H]1C(=O)O)c1ccccc1
[Q] O=C(S[C@H]1CC[C@@H]1C(=O)N1CCC[C@H]1C(=O)O)c1ccccc1
Input: Kindly identify the item with the lower Reduction figure among these two: P and Q Write the label of whichever entry you select.
Output: P
